# Tested on: Paracentrotus lividus
# assay text: Cytotoxicity against Paracentrotus lividus embryo assessed as embryo spinning after 9 to 12 hrs fertilization and 0.5 to 20 hrs treatment
# Type: functional, organism-based
Please use label 1 for EC50 under 100 nM and label 0 for everything else, ties included.

Field: example entries. Status: answers known.
>>> print(df.to_string())
                               query_smiles      cat
0  c1cncc(CNc2cn[nH]c2-c2nnc(Nc3ccc4c(c3)OCCO4)o2)c1  label 0
1       Nc1ccccc1-c1nnc(Nc2ccc3c(c2)OCO3)o1  label 0
2  COc1ccc(-c2nnc(Nc3ccc4c(c3)OCCO4)o2)c(N)c1  label 0
3           Nc1csnc1-c1nnc(Nc2ccc(Cl)cc2)o1  label 0
4  COc1cc(N)c(-c2nnc(Nc3ccc4c(c3)OCO4)o2)c(OC)c1  label 0

Please state whether EC50 is below 100 nM for c1ccc(-c2nnc(Nc3ccc4c(c3)OCCO4)o2)c(NCc2ccns2)c1
label 0

Please state whether EC50 is below 100 nM for c1cncc(CNc2csnc2-c2nnc(Nc3ccc4c(c3)OCO4)o2)c1
label 1

Please state whether EC50 is below 100 nM for c1ccc(-c2nnc(Nc3ccc4c(c3)OCCO4)o2)c(NCc2ccncc2)c1
label 1

Please state whether EC50 is below 100 nM for c1cncc(CNc2cn[nH]c2-c2nnc(Nc3ccc4c(c3)OCO4)o2)c1
label 0

Please state whether EC50 is below 100 nM for Cn1ncc(NCc2cccnc2)c1-c1nnc(Nc2ccc3c(c2)OCCO3)o1
label 0

Please state whether EC50 is below 100 nM for c1cncc(CNc2ccccc2-c2nnc(Nc3ccc4c(c3)OCO4)o2)c1
label 1

====

# Test system: Paracentrotus lividus
# assay text: Cytotoxicity against Paracentrotus lividus embryo assessed as embryo spinning after 9 to 12 hrs fertilization and 0.5 to 20 hrs treatment
# Format: functional, organism-based
property: pEC50
Remember the convention: pEC50 equals -log10 of concentration in molar.

>>> df
                                   compound  property  reported
0  COc1ccc(/C=C\c2cc(OC)c(OC)c(OC)c2)cc1OP(=O)(O)O [FOSBRETABULIN DISODIUM]     pEC50      6.00
1  c1cncc(CNc2ccccc2-c2nnc(Nc3ccc4c(c3)OCCO4)o2)c1     pEC50      8.30
2      Nc1ccccc1-c1nnc(Nc2ccc3c(c2)OCCO3)o1     pEC50      7.00

Query compound follows.
Query COc1ccc(/C=C\c2cc(OC)c3c(c2)OCO3)cc1O yields pEC50 of 7.30

====

# Tested on: Paracentrotus lividus
# assay text: Cytotoxicity against Paracentrotus lividus embryo assessed as embryo spinning after 9 to 12 hrs fertilization and 0.5 to 20 hrs treatment
# Type: functional, organism-based
property: EC50

Worked set:
                               query_smiles  property  reported
0     Nc1[nH]ncc1-c1nnc(Nc2ccc3c(c2)OCO3)o1      EC50   > 20 µM
1  CS(=O)(=O)c1ccc(Nc2nnc(-c3ccccc3N)o2)cc1      EC50    > 5 µM
2        Nc1csnc1-c1nnc(Nc2ccc3c(c2)OCO3)o1      EC50    > 5 µM

Query COc1cc(-c2nnc(Nc3ccc4c(c3)OCO4)o2)cc(OC)c1OC yields EC50 of > 5 µM

Query Clc1ccc(Nc2nnc(-c3nscc3NCc3cccnc3)o2)cc1 yields EC50 of > 2.5 µM
